# experimental details: HUVEC growth inhibition – cell-based, human, primary screen (AID 575)
# measurement conditions: HUVEC proliferation, CellTiter-Glo luminescence, 72 h; at 10 µM
Active and inactive are the calls of the source.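 Rule for the calls: active = viability at or below 30% in both replicate assays; inconclusive = viability at or below 30% in just one of the two assays; inactive = the rest.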
Write down one outcome, taken from Y for active, N for inactive

Dear all, I need the recorded test outcome for "O=C(NCCC1=CCCCC1)c1cc2c(s1)CS(=O)(=O)C2" , thank you. N

Just curious, what result did "COc1ccccc1OCC(=O)NCC1CCCCC1" get here? N

Which result was noted for this compound in the test: "Cc1cc2c(cc1C)C(=O)NC(C)(C)C2" N

Look up the recorded call for "COc1ccc(C(=O)N2CCSC2=S)cc1OC" in this test. N

Name the outcome recorded for "COc1cccc(Cn2c(Oc3ccccc3)nc3c2c(=O)n(C)c(=O)n3C)c1" in the assay. N

Dear colleague, could you share the recorded outcome for "O=C(Cn1nnc(-c2ccc(CN3CCOCC3)cc2)n1)NC1CCCCC1" when you have a moment? N

# outcome recorded in this test, key = "O=C(O)CCC(=O)c1c[nH]c2ccccc12" N

I'd appreciate the recorded outcome for "Cc1ccc(Nc2cc(-n3nc(C)cc3C)ncn2)cc1" from this test. N

What was the test verdict on "COc1ccc(C)cc1NC(=O)CSc1nnnn1Cc1ccccc1" ? N

// return assay outcome for "Cc1ccc2nc(SCC(=O)NCc3ccco3)c(C#N)cc2c1" N

Recorded test outcome, item "CCOc1ccc(NC(=O)c2ccccc2O)cc1" N

# outcome recorded in this test, key = "Cc1ccccc1CN1CCN(CC(=O)NCc2ccccc2)C1=O" N

Field: outcome | Entry: "O=C(NCc1ccccc1)C1CCN(S(=O)(=O)N2CCCCCC2)CC1" N

// param item: "CC1CCN(S(=O)(=O)c2ccc3[nH]cc(C(=O)NCCN4CCOCC4)c(=O)c3c2)CC1" ; yields the recorded call N

Outcome logged for "O=C(O)c1c(Cl)c(Cl)c(Cl)c(Cl)c1C(=O)N1CCOCC1" in this assay: N

For this compound, state the assay outcome: CC(=O)Nc1ccc(S(=O)(=O)Nc2nc3n(n2)C(c2ccccc2)CC(=O)N3)cc1 (centres undefined) N

Write down the call the test reported for this compound. Item: COc1ccc(C2c3sc(=O)[nH]c3SC3C4CCC(C4)C23)cc1 (centres undefined) N

How did this test come out for "COC(=O)COc1ccc(S(=O)(=O)NCCC2=CCCCC2)cc1" ? Y

# fetch the recorded call for "CCn1c(=O)n(CC(=O)Nc2cc(OC)ccc2OC)c(=O)c2ccccc21" here N

Hey, what did the test say about "CC(C)(C)c1cc(CCC(=O)N2CCNCC2)c(C(C)(C)C)cc1O" ? N

Per the assay record, what outcome was assigned to "COc1cc2c(C)nc(C)c(C#N)c2cc1OC" ? N

Query: recorded result category for "Cc1ccc2[nH]c3c(N4CCOCC4)ncnc3c2c1" in this test N

// return assay outcome for "Cc1cc(Nc2ccc(N3CCC(C)CC3)cc2)n2ncnc2n1" N

Which outcome did this test record for the compound "Cc1cc(-c2ccccc2)c2c3c(cn2n1)c(=O)n(C)c(=O)n3C" ? N
